Recorded binding signal by entry
System under test: AGO2 A367P (Homo sapiens, UniProt Q9UKV8 1-859, A367P;S387D;S824A;S828D;S831D;S834A)
Sequence (Q9UKV8 whole entry A367P/S387D/S824A/S828D/S831D/S834A): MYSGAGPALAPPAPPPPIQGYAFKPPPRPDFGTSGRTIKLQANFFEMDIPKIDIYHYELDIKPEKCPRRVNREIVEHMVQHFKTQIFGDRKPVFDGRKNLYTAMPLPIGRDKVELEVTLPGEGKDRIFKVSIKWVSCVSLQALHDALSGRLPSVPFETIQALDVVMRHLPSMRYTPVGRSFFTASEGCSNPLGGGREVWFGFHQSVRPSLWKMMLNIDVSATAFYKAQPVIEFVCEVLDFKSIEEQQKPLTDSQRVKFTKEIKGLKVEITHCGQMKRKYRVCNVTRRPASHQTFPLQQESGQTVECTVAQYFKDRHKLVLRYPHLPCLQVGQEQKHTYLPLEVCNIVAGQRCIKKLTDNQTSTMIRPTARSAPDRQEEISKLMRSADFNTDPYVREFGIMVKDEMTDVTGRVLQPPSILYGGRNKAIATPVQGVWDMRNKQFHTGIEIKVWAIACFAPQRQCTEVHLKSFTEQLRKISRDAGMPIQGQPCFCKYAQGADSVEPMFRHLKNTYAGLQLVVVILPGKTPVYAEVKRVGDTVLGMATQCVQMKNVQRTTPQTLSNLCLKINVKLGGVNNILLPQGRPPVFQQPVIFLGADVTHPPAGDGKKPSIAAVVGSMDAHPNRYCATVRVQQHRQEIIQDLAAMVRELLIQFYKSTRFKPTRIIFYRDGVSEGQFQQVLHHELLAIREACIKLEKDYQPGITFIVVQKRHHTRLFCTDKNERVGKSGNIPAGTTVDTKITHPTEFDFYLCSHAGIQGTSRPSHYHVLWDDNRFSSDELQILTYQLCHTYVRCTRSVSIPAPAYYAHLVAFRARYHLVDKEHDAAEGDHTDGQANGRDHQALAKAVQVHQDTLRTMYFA
Test: RNA Bind-n-Seq (nitrocellulose filter binding and sequencing); miR-122 guide loaded in AGO2; 60 min incubation; 30 mM Tris pH 8.0, 100 mM potassium acetate, 2 mM magnesium acetate, 0.5 mM TCEP, 0.005% NP-40, 0.01 mg/ml yeast tRNA; 3 nM AGO2-miR-122, 100 nM RNA library; 60; high values mean tight binding
Test parameters: protein: recombinant; tags: His6 (N-terminal, pFastBac HTA)

[[record]]
binder = "ATACCCTA (ssRNA, constant regions annealed to DNA blockers; guide miR-122 5' phosphate) RNA 1: GAGUUCUACAGUCCGACGAUCCCAACAUACCCUACACCUGGAAUUCUCGGGUGCCAA RNA 2: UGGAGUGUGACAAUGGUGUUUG DNA 1: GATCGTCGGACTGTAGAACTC DNA 2: TTGGCACCCGAGAATTCCA"
value_measured = "0.148 fold enrichment over input"


Enquiry: Looking for the measured binding signal of ACACTCTA (ssRNA, constant regions annealed to DNA blockers; guide miR-122 5' phosphate) RNA 1: GAGUUCUACAGUCCGACGAUCCCAACACACUCUACACCUGGAAUUCUCGGGUGCCAA RNA 2: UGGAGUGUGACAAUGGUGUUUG DNA 1: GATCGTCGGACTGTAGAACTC DNA 2: TTGGCACCCGAGAATTCCA , can you help?
Return: 0.661 fold enrichment over input
